Test system: c-Src;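 further: 11-residue human phosphosite peptides and single-mutation variants displayed on the E. coli surface, counted by deep sequencing, each peptide's frequency after selection divided by its frequency in the unselected input library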;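 further: frequency after pTyr selection over input frequency; kinase dosed for 20-30% of maximal phosphorylation in three min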
Experiment: phosphorylation enrichment, bacterial display (enrichment ratio); higher = better substrate or ligand; peptides without Tyr show the background
Tick rule met if phosphorylation enrichment is 0.5 or greater. Tick rule not met if phosphorylation enrichment is less than 0.5.

Sample answers from the record:
SDQPDYDSVAS [GIT2_Y392_N387S] : rule met
PSFSEYASVQV [SIRPA_Y496] : rule met
LEGKEYRMSGE [KRT3_Y511_E509K] : rule not met
FRAPGYREVVI [TNS2_Y673_YF] : rule not met
WEPFGYAVTRC [PTPRT_Y412] : rule not met
RYVSRYIYNRE [HLA-DQB1_Y62_T60S] : rule met

Ask | Please tell me: is the sequence QEGPEYWDRET [HLA-A_Y83_Q86R] at or over 0.5 in terms of phosphorylation enrichment?
Reply | rule met

Ask | Threshold query (phosphorylation enrichment >= 0.5) on ILLAGYLVMVI [SLC28A3_Y113]
Reply | rule not met

Ask | Entry AGIVDYNIIGW [MYH7_Y588] : is its phosphorylation enrichment no less than 0.5?
Reply | rule not met

Ask | Record RHPLDYLRQFP [NARS2_Y138_E137D_YF] ; criterion: phosphorylation enrichment no lower than 0.5. Met?
Reply | rule met

Ask | Does the sequence AEVIWYKGDEV have recorded phosphorylation enrichment that is 0.5 or more?
Reply | rule not met

Ask | Determine whether this sequence has phosphorylation enrichment no lower than 0.5: HIKHNYECLVF [XRCC5_Y416_YF]
Reply | rule met

Ask | Textbook exercise: given the entry CPPKVYELMRA [ABL2_Y515] , state whether its phosphorylation enrichment is greater than or equal to 0.5.
Reply | rule met
